# Measured On: recombinant human integrin αvβ6 (Homo sapiens (Human), UniProt P06756+P18564)
# Sequence (P06756 31-992): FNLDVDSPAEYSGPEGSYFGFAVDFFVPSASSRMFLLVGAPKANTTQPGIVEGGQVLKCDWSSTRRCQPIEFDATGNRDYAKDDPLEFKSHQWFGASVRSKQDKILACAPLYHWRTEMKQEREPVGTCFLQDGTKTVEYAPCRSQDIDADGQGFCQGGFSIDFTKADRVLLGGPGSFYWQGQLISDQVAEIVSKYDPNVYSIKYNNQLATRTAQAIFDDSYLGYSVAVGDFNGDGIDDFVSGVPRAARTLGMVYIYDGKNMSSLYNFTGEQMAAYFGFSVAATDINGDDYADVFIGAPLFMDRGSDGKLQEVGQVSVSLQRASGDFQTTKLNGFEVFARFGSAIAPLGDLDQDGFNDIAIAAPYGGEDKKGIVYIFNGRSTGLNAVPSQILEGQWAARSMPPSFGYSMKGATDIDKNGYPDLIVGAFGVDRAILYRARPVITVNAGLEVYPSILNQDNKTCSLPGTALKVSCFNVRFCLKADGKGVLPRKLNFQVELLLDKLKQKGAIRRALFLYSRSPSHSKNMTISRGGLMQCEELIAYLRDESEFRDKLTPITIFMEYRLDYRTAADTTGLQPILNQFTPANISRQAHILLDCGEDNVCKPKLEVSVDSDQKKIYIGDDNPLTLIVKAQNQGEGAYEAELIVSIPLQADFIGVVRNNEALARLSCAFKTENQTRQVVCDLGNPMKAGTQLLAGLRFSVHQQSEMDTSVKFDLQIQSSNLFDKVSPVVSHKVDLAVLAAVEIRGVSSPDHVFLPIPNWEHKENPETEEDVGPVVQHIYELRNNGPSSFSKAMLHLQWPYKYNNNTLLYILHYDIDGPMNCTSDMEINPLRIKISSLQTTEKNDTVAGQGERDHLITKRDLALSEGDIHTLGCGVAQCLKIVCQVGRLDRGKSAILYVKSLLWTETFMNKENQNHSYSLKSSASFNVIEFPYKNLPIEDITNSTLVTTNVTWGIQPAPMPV
# Sequence (P18564 22-707): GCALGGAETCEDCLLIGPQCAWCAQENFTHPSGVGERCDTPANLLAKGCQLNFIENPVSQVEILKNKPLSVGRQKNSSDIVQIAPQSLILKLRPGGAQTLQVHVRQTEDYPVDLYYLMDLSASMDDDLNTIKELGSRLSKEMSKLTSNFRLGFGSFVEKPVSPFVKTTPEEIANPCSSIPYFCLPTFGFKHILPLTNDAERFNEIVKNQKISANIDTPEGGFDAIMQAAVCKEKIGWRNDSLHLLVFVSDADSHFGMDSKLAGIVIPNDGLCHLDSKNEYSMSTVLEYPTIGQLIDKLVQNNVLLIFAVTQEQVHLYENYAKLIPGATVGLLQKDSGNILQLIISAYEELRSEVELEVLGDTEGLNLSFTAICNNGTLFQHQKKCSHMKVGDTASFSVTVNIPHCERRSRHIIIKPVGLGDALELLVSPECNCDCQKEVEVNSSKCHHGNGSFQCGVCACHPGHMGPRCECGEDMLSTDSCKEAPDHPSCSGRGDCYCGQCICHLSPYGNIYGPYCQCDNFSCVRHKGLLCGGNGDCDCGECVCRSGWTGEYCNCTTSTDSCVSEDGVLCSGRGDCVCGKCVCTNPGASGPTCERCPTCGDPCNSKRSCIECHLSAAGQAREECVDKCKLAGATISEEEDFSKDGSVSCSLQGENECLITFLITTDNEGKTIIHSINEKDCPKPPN
# Assay Remarks: Solid phase integrin αvβ6 binding assay
# Condition Details: plate-coated integrin; recombinant TGFβ1 LAP 0.67 ug/ml as ligand; 2 hours at 25° C.; read-out: αvβ6 Inhibition IC50 (nM) - range
Observed Property: IC50

Record excerpt, results attached:
{"Molecule": "O=C(N[C@H](CCN1CC[C@@H](CCc2ccc3c(n2)NCCC3)C1)C(=O)O)c1cccc(-c2cscn2)c1 [Compound 85]", "IC50": "< 50 nM"}
{"Molecule": "O=C(N[C@@H](CCN1CC[C@@H](CCc2ccc3c(n2)NCCC3)C1)C(=O)O)c1c(Cl)cccc1Cl [Compound 6a]", "IC50": "< 50 nM"}
{"Molecule": "Cn1ncc2c(C(=O)N[C@@H](CCN3CC[C@@H](CCc4ccc5c(n4)NCCC5)C3)C(=O)O)cccc21 [Compound 27a]", "IC50": "< 50 nM"}
{"Molecule": "O=C(N[C@@H](CCN1CC(CCc2ccc3c(n2)NCCC3)C1)C(=O)O)[C@H]1CCN(c2ccccn2)C1 [Compound 138]", "IC50": "250 to 1000 nM"}
{"Molecule": "COC(=O)N1CCC[C@@H](C(=O)N[C@@H](CCN2CC[C@@H](CCc3ccc4c(n3)NCCC4)C2)C(=O)O)C1 [Compound 80]", "IC50": "< 50 nM"}

IC50 reported for this molecule CC(C)(C(=O)N[C@@H](CCN1CC[C@@H](CCc2ccc3c(n2)NCCC3)C1)C(=O)O)c1ccccc1 [Compound 44] : < 50 nM

IC50 reported for this molecule O=C(N[C@@H](CCN1CC(OCCc2ccc3c(n2)NCCC3)C1)C(=O)O)C1CCOCC1 [Compound 124] : 50 to 250 nM

---

Entries annotated with measured IC50
# Measured On: recombinant human integrin αvβ6 (Homo sapiens (Human), UniProt P06756+P18564)
# Assay Remarks: Solid phase integrin αvβ6 binding assay
# Condition Details: plate-coated integrin; recombinant TGFβ1 LAP 0.67 ug/ml as ligand; 2 hours at 25° C.; read-out: αvβ6 Inhibition IC50 (nM) - range

Test item `O=C(N[C@H](CCN1CC[C@@H](CCc2ccc3c(n2)NCCC3)C1)C(=O)O)c1cccc(-c2cncs2)c1` ; recombinant human integrin αvβ6 (Homo sapiens (Human), UniProt P06756+P18564); reported IC50 was < 50 nM

Test item `CC(C)(C(=O)N[C@@H](CCN1CC(OCCc2ccc3c(n2)NCCC3)C1)C(=O)O)c1ccccc1` ; recombinant human integrin αvβ6 (Homo sapiens (Human), UniProt P06756+P18564); reported IC50 was 50 to 250 nM

Test item `O=C(N[C@@H](CCN1CC[C@@H](CCc2ccc3c(n2)NCCC3)C1)C(=O)O)c1cccs1` ; recombinant human integrin αvβ6 (Homo sapiens (Human), UniProt P06756+P18564); reported IC50 was < 50 nM

Test item `Cc1nn(C)cc1-c1nn(C)c2c(C(=O)N[C@@H](CCN3CC[C@@H](CCc4ccc5c(n4)NCCC5)C3)C(=O)O)cccc12` ; recombinant human integrin αvβ6 (Homo sapiens (Human), UniProt P06756+P18564); reported IC50 was 250 to 1000 nM

Test item `CC(C)(C(=O)N[C@@H](CCN1CC[C@@H](OCCc2ccc3c(n2)NCCC3)C1)C(=O)O)c1cccnc1` ; recombinant human integrin αvβ6 (Homo sapiens (Human), UniProt P06756+P18564); reported IC50 was 250 to 1000 nM

Test item N#Cc1cc(Cl)c(C(=O)NC(CCN2CC[C@@H](CCc3ccc4c(n3)NCCC4)C2)C(=O)O)c(Cl)c1 (stereo partly shown) ; recombinant human integrin αvβ6 (Homo sapiens (Human), UniProt P06756+P18564); reported IC50 was < 50 nM

Test item `CC(C)(C(=O)N[C@@H](CCN1CC[C@@H](OCCc2ccc3c(n2)NCCC3)C1)C(=O)O)c1ccccc1` ; recombinant human integrin αvβ6 (Homo sapiens (Human), UniProt P06756+P18564); reported IC50 was 250 to 1000 nM

---

Entries annotated with measured IC50
# Measured On: recombinant human integrin αvβ6 (Homo sapiens (Human), UniProt P06756+P18564)
# Assay Remarks: Solid phase integrin αvβ6 binding assay
# Condition Details: plate-coated integrin; recombinant TGFβ1 LAP 0.67 ug/ml as ligand; 2 hours at 25° C.; read-out: αvβ6 Inhibition IC50 (nM) - range

Record excerpt, results attached:
{"Compound": "O=C(NC(CCN1CC[C@@H](CCc2ccc3c(n2)NCCC3)C1)C(=O)O)c1c(Cl)cncc1Cl (stereo partly shown) [20a and 20c]", "IC50": "< 50 nM"}
{"Compound": "CC1(C(=O)N[C@@H](CCN2CC[C@@H](CCc3ccc4c(n3)NCCC4)C2)C(=O)O)CCOCC1 [Compound 22a]", "IC50": "50 to 250 nM"}
{"Compound": "CC(C)(O)CN1CCC[C@H]1C(=O)N[C@@H](CCN1CC[C@@H](OCCc2ccc3c(n2)NCCC3)C1)C(=O)O", "IC50": "> 1000 nM"}

IC50 reported for this compound O=C(N[C@@H](CCN1CC[C@@H](CCc2ccc3c(n2)NCCC3)C1)C(=O)O)c1ccncc1 [Compound 18a] : < 50 nM

---

# Measured On: recombinant human integrin αvβ6 (Homo sapiens (Human), UniProt P06756+P18564)
# Assay Remarks: Solid phase integrin αvβ6 binding assay
# Condition Details: plate-coated integrin; recombinant TGFβ1 LAP 0.67 ug/ml as ligand; 2 hours at 25° C.; read-out: αvβ6 Inhibition IC50 (nM) - range
# Experimental: Example B1—Solid Phase Integrin αvβ6 Binding Assay Microplates were coated with recombinant human integrin αvβ6 (2 ug/ml) in PBS (100 ul/well 25° C., overnight). The coating solution was removed, washed with wash buffer (0.05% Tween 20; 0.5 mM MnCl2; in 1×TBS). […] Bound antibody was detected by peroxidase-conjugated streptavidin. The IC50 values for testing compounds were calculated by a four-parameter logistic regression. […]
Observed Property: IC50

{"Smiles Record": "CC(C)Cn1cc2c(C(=O)N[C@@H](CCN3CC[C@@H](CCc4ccc5c(n4)NCCC5)C3)C(=O)O)cccc2n1", "Observed Property": "IC50", "Result": "< 50 nM"}

IC50 reported for this compound `CCCCC(=O)N1CCCC[C@H]1C(=O)N[C@@H](CCN1CC[C@@H](CCc2ccc3c(n2)NCCC3)C1)C(=O)O` : < 50 nM

IC50 reported for this compound `O=C(N[C@@H](CCN1CC[C@@H](CCc2ccc3c(n2)NCCC3)C1)C(=O)O)c1cccc(-c2ncco2)c1` : < 50 nM

IC50 reported for this compound `O=C(N[C@@H](CCN1CC(OCCc2ccc3c(n2)NCCC3)C1)C(=O)O)c1c(Cl)cccc1Cl` : < 50 nM

IC50 reported for this compound `CCC(CC)C(=O)N[C@@H](CCN1CCC[C@](F)(CCc2ccc3c(n2)NCCC3)C1)C(=O)O` : 250 to 1000 nM

IC50 reported for this compound `O=C(N[C@@H](CCN1CC[C@@H](CCc2ccc3c(n2)NCCC3)C1)C(=O)O)[C@H]1CCN(c2ccccn2)C1` : < 50 nM

---

# Measured On: recombinant human integrin αvβ6 (Homo sapiens (Human), UniProt P06756+P18564)
# Assay Remarks: Solid phase integrin αvβ6 binding assay
# Condition Details: plate-coated integrin; recombinant TGFβ1 LAP 0.67 ug/ml as ligand; 2 hours at 25° C.; read-out: αvβ6 Inhibition IC50 (nM) - range
Observed Property: IC50

Record excerpt, results attached:
{"Smiles Record": "CC(C)(C(=O)N[C@@H](CCN1CC[C@@H](CCc2ccc3c(n2)NCCC3)C1)C(=O)O)c1cccnc1", "IC50": "< 50 nM"}
{"Smiles Record": "O=C(N[C@@H](CCN1CCC[C@](F)(CCc2ccc3c(n2)NCCC3)C1)C(=O)O)c1cccc(F)c1Cl", "IC50": "< 50 nM"}
{"Smiles Record": "O=C(N[C@@H](CCN1CCC[C@@](F)(CCc2ccc3c(n2)NCCC3)C1)C(=O)O)c1cccc(F)c1Cl", "IC50": "50 to 250 nM"}

For the next question, use this compound.
Test item `O=C(NC1CCN(CC[C@H](NC(=O)C2CCC(F)(F)CC2)C(=O)O)CC1)c1ccc2c(n1)NCCC2` ; recombinant human integrin αvβ6 (Homo sapiens (Human), UniProt P06756+P18564); reported IC50 was > 1000 nM
